System: FER
condition.set: concentration: 1 μM, replicates: in singlicate; n = 1;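 further: KINOMEscan kinase panel screen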
Can you tell me %Inh for the items I'm about to list?
Quick reminder: number only, in %, skip the unit.

Lab note: measured %Inh of Cc1c(Cn2c3ccccc3n3c(=O)cc(N4CCOCC4)nc23)cccc1C(F)(F)F was 6

Lab note: measured %Inh of COc1ccc(Nc2nccc(N3CCC(NC(=O)C(C)c4ccc(Cl)cc4)CC3)n2)cc1 (stereo not shown) was 46

Lab note: measured %Inh of CS(=O)(=O)CCNCc1nc(-c2ccc3ncnc(Nc4ccc(OCc5ccccc5)c(Cl)c4)c3c2)cs1.Cl was 0

Lab note: measured %Inh of CNc1cc(-c2ccc3c(N)n[nH]c3c2)nc(N)n1 was 19

Lab note: measured %Inh of COc1ccc(Nc2nccc(NCCNC(=O)Nc3cc(C)ccc3C)n2)cc1 was 17

Lab note: measured %Inh of Cl.Cl.Cl.N#Cc1ccc(CCNc2nccc(-c3cccc(CN4CCNCC4)c3)n2)cc1 was 4

Lab note: measured %Inh of NS(=O)(=O)c1cccc(N/C=C2\C(=O)Nc3ccc(S(=O)(=O)Cc4c(Cl)cccc4Cl)cc32)c1 was 7

Lab note: measured %Inh of CNC(=O)c1ccc(C)c(-n2c(C)cc(OCc3ccc(F)cc3F)c(Br)c2=O)c1 was 18

Lab note: measured %Inh of O=C1NC(=O)C(c2ccc(Cl)cc2)=C1Nc1ccc(O)cc1 was 4

Lab note: measured %Inh of CCn1c(-c2ccccc2)nc2cnccc21 was 18

Lab note: measured %Inh of COc1nccc(-c2c(-c3ccc(F)cc3)ncn2CCCN2CCOCC2)n1 was 0

Lab note: measured %Inh of Fc1ccc(-c2nc[nH]c2-c2ccncc2)cc1 was 23

Lab note: measured %Inh of FC(F)(F)c1ccccc1-c1cc(-c2c[nH]nc2-c2ccccn2)ccn1 was 15

* * *

Can you tell me %Inh for the items I'm about to list?
Test system: CDK3
condition.set: concentration: 1 μM, replicates: in singlicate; n = 1
Quick reminder: number only, in %, skip the unit.

Lab note: measured %Inh of COC(=O)C(Cc1ccccc1)NC(=O)NC1CCN(c2ccnc(Nc3ccc(F)cc3)n2)C1 (stereo not shown) was 6

Lab note: measured %Inh of COc1cccc(CNC(=O)NC2CCN(c3ccnc(Nc4ccc(F)cc4)n3)C2)c1 (stereo not shown) was 6

Lab note: measured %Inh of COc1nccc(-c2c(-c3ccc(F)cc3)ncn2CCCN2CCOCC2)n1 was 6

Lab note: measured %Inh of COc1cc2ncnc(Nc3cccc(Br)c3)c2cc1OC.Cl was 6

* * *

System: CDC2L2
condition.set: concentration: 1 μM, replicates: in singlicate; n = 1
Can you tell me %Inh for the items I'm about to list?
Quick reminder: number only, in %, skip the unit.

Lab note: measured %Inh of Cc1ccc(NC(=O)Nc2ccccc2)cc1-c1ccc(C(=O)Nc2ccncc2)cc1 was 13

Lab note: measured %Inh of Cc1ccc(NC(=O)Nc2ccc(Cl)cc2)cc1-c1ccc(C(=O)Nc2ccncc2)cc1 was 13

Lab note: measured %Inh of Cc1nccc(-c2c(-c3ccc(F)cc3)ncn2CCCN2CCOCC2)n1.Cl was 23

Lab note: measured %Inh of COc1cccc(C2=C(Nc3cc(Cl)c(O)c(Cl)c3)C(=O)NC2=O)c1 was 0

* * *

Can you tell me %Inh for the items I'm about to list?
Test system: BRK
Construct: gene PTK6
condition.set: concentration: 1 μM, replicates: in singlicate; n = 1
Quick reminder: number only, in %, skip the unit.

Lab note: measured %Inh of O=C(Nc1n[nH]c2cc(-c3ccsc3)ccc12)C1CC1 [SB-732932] was 0

Lab note: measured %Inh of COc1cccc(C2=C(Nc3cc(Cl)c(O)c(Cl)c3)C(=O)NC2=O)c1 [SB-390767] was 18

Lab note: measured %Inh of COc1ccc(Nc2nccc(N3CCC(NC(=O)C(C)c4ccc(Cl)cc4)CC3)n2)cc1 (stereo not shown) [GSK1379812] was 0

Lab note: measured %Inh of CCCCc1nn2ncccc2c1-c1ccnc(NC2CC2)n1 [GW684374] was 0

Lab note: measured %Inh of O=c1cc(N2CCOCC2)nc2n(Cc3ccccc3F)ccn12 [GSK2297428] was 36

Lab note: measured %Inh of Cl.Cl.Cl.N#Cc1ccc(CCNc2nccc(-c3cccc(CN4CCNCC4)c3)n2)cc1 [GSK2137462] was 8

Lab note: measured %Inh of Fc1ccc(-c2nc[nH]c2-c2ccncc2)cc1 [SB-217360] was 0

* * *

System: PIK3CG
condition.set: concentration: 1 μM, replicates: in singlicate; n = 1
# strict inequality: %Inh < 4% yields label 1, everything else yields label 0

Below 4% on %Inh? Entry COc1ccc(Nc2nccc(N3CCC(NC(=O)C(C)c4ccc(Cl)cc4)C3)n2)cc1 (centres unmarked)
label 1

Below 4% on %Inh? Entry COc1cccc(CNC(=O)NC2CCN(c3ccnc(Nc4ccc(F)cc4)n3)C2)c1 (centres unmarked)
label 1

Below 4% on %Inh? Entry COC(=O)C(Cc1ccccc1)NC(=O)NC1CCN(c2ccnc(Nc3ccc(F)cc3)n2)C1 (centres unmarked)
label 1

Below 4% on %Inh? Entry CCn1c(-c2ccccc2)nc2cnccc21
label 1

Below 4% on %Inh? Entry O=c1cc(N2CCOCC2)nc2n(Cc3ccccc3F)ccn12
label 0

Below 4% on %Inh? Entry COc1ccc(CSc2nnc(-c3ccc4c(c3)CCO4)o2)cc1
label 1

Below 4% on %Inh? Entry CNc1nc(-c2ccc3c(N)n[nH]c3c2)cc(N2C[C@@H](C(=O)Nc3ccccc3)CC[C@H]2C)n1
label 1

Below 4% on %Inh? Entry Cn1cncc1-c1cc2c(Nc3ccc(OCc4ccccc4)cc3)ncnc2cn1
label 1

Below 4% on %Inh? Entry CC(=O)c1c(C)c2cnc(Nc3ccc(N4CCNCC4)cn3)nc2n(C2CCCC2)c1=O
label 0

* * *

Tested on: TRPM6
condition.set: concentration: 1 μM, replicates: in singlicate; n = 1
Can you tell me %Inh for the items I'm about to list?
Quick reminder: number only, in %, skip the unit.

Lab note: measured %Inh of O=C(Nc1n[nH]c2nc(-c3cccs3)c(Br)cc12)C1CCCC1 [SB-743341] was 0

Lab note: measured %Inh of CCn1c(-c2c(N)noc2C)nc2cnccc21 [SB-737856] was 0

Lab note: measured %Inh of CC(C)c1ccc(O)cc1Nc1ccnc2ccc(C(F)(F)F)cc12 [GW482059] was 1

Lab note: measured %Inh of COc1cccc(C2=C(Nc3cc(Cl)c(O)c(Cl)c3)C(=O)NC2=O)c1 [SB-390767] was 15

Lab note: measured %Inh of COC(=O)c1cccc(NC(=O)NC2CCN(c3ccnc(Nc4ccc(F)cc4)n3)C2)c1 (stereo not drawn) [GSK1379725] was 0

Lab note: measured %Inh of COC(=O)C(Cc1ccccc1)NC(=O)NC1CCN(c2ccnc(Nc3ccc(F)cc3)n2)C1 (stereo not drawn) [GSK1379714] was 0

Lab note: measured %Inh of O=C(Nc1n[nH]c2nc(-c3cccs3)c(Br)cc12)C1CC1 [SB-735297] was 18

Lab note: measured %Inh of CNc1nc(-c2ccc3c(N)n[nH]c3c2)cc(N2C[C@@H](C(=O)Nc3ccccc3)CC[C@H]2C)n1 [GSK2298859] was 0

Lab note: measured %Inh of O=c1cc(N2CCOCC2)nc2n(Cc3cccc(Cl)c3Cl)c3ccccc3n12 [GSK2299009] was 36

* * *

Tested on: PIK3C2B
condition.set: concentration: 1 μM, replicates: in singlicate; n = 1
Can you tell me %Inh for the items I'm about to list?

The observed %Inh for Nc1nccc(-c2c(-c3ccc(F)cc3)ncn2C2CCN(Cc3ccccc3)CC2)n1 when tested with PIK3C2B stands at 17%

The observed %Inh for CNc1nc(-c2ccc3c(N)n[nH]c3c2)cc(N2C[C@@H](C(=O)NC3CCCCC3)OC[C@H]2C)n1 when tested with PIK3C2B stands at 0%

The observed %Inh for Cc1ccccc1Cn1ccn2c(=O)cc(N3CCOCC3)nc12 when tested with PIK3C2B stands at 0%

* * *

Test system: ICK
condition.set: concentration: 1 μM, replicates: in singlicate; n = 1
observation.type: %Inh (%)
Quick reminder: number only, in %, skip the unit.

Lab note: measured %Inh of FC(F)(F)c1ccccc1-c1cc(-c2c[nH]nc2-c2ccccn2)ccn1 was 3

Lab note: measured %Inh of COc1ccc(Nc2nccc(N3CCC(NC(=O)C(C)c4ccc(Cl)cc4)CC3)n2)cc1 (stereo not shown) was 0

Lab note: measured %Inh of Cc1ccc(NC(=O)Nc2ccccc2F)cc1-c1ccc(C(=O)Nc2ccncc2)cc1 was 18

Lab note: measured %Inh of CCCCc1nn2ncccc2c1-c1ccnc(NC2CC2)n1 was 7

Lab note: measured %Inh of Cc1ccc(NC(=O)Nc2ccccc2)cc1-c1ccc(C(=O)Nc2ccncc2)cc1 was 2

Lab note: measured %Inh of COc1ccc(CSc2nnc(-c3ccc4c(c3)CCO4)o2)cc1 was 0

Lab note: measured %Inh of COc1ccc(Nc2nccc(-c3ccc(NC(=O)c4cc5cc(F)ccc5[nH]4)cc3)n2)cc1 was 0

Lab note: measured %Inh of O=C(Nc1n[nH]c2nc(-c3ccco3)c(Br)cc12)C1CCN(Cc2ccccc2)C1.O=C(O)[C@H](O)[C@@H](O)C(=O)O (stereo not shown) was 22

Lab note: measured %Inh of COc1cccc(C2=C(Nc3cc(Cl)c(O)c(Cl)c3)C(=O)NC2=O)c1 was 27

Lab note: measured %Inh of Cc1ccc(NC(=O)Nc2ccc(Cl)cc2)cc1-c1ccc(C(=O)Nc2ccncc2)cc1 was 17

Lab note: measured %Inh of Cc1ccc(NC(=O)Nc2ccc(Cl)c(C(F)(F)F)c2)cc1-c1ccc(C(=O)Nc2ccncc2)cc1 was 4

Lab note: measured %Inh of CS(=O)(=O)CCNCc1nc(-c2ccc3ncnc(Nc4ccc5c(cnn5Cc5ccccc5)c4)c3c2)cs1.Cl.Cl was 2

Lab note: measured %Inh of Cn1cnc2c(N)ncnc21 was 0

Lab note: measured %Inh of COC(=O)C(Cc1ccccc1)NC(=O)NC1CCN(c2ccnc(Nc3ccc(F)cc3)n2)C1 (stereo not shown) was 0

Lab note: measured %Inh of CCn1c(-c2ccccc2)nc2cnccc21 was 46

Lab note: measured %Inh of COc1cc2ncnc(Nc3cccc(Br)c3)c2cc1OC.Cl was 3

Lab note: measured %Inh of CS(=O)(=O)CCNCc1nc(-c2ccc3ncnc(Nc4ccc(OCc5ccccc5)c(Cl)c4)c3c2)cs1.Cl was 0

Lab note: measured %Inh of O=C1NC(=O)C(c2ccc(Cl)cc2)=C1Nc1cccc(Cl)c1 was 28

Lab note: measured %Inh of Cc1ccccc1Cn1ccn2c(=O)cc(N3CCOCC3)nc12 was 0

Lab note: measured %Inh of Cc1nccc(-c2c(-c3ccc(F)cc3)ncn2CCCN2CCOCC2)n1.Cl was 39

Lab note: measured %Inh of Cc1cnc(N)c(/C=C/c2cncc(C(=O)NCCc3ccc(Cl)cc3Cl)c2)c1.Cl was 0

Lab note: measured %Inh of Cc1ccc(-c2nc(Nc3ccncc3)c3ccccc3n2)s1 was 19

Lab note: measured %Inh of Nc1cccc(-c2ccc3c(N)n[nH]c3c2)n1 was 9

Lab note: measured %Inh of CSc1ccc(-c2nc3n(c2-c2ccncc2)CCC3)cc1 was 18

Lab note: measured %Inh of COC(=O)C(NC(=O)NC1CCN(c2ccnc(Nc3ccc(F)cc3)n2)C1)c1ccccc1 (stereo not shown) was 9

Lab note: measured %Inh of CC(=O)c1cccc(NC(=O)NC2CCN(c3ccnc(Nc4ccc(F)cc4)n3)C2)c1 (stereo not shown) was 5

Lab note: measured %Inh of O=C(Nc1n[nH]c2cc(-c3ccsc3)ccc12)C1CC1 was 63

Lab note: measured %Inh of O=C1NC(=O)C(c2ccc(Cl)cc2)=C1Nc1ccc(O)cc1 was 0
